- target entity: B-Raf V600E (Homo sapiens (Human), UniProt P15056, V600E)
- Sequence (P15056 whole entry V600E): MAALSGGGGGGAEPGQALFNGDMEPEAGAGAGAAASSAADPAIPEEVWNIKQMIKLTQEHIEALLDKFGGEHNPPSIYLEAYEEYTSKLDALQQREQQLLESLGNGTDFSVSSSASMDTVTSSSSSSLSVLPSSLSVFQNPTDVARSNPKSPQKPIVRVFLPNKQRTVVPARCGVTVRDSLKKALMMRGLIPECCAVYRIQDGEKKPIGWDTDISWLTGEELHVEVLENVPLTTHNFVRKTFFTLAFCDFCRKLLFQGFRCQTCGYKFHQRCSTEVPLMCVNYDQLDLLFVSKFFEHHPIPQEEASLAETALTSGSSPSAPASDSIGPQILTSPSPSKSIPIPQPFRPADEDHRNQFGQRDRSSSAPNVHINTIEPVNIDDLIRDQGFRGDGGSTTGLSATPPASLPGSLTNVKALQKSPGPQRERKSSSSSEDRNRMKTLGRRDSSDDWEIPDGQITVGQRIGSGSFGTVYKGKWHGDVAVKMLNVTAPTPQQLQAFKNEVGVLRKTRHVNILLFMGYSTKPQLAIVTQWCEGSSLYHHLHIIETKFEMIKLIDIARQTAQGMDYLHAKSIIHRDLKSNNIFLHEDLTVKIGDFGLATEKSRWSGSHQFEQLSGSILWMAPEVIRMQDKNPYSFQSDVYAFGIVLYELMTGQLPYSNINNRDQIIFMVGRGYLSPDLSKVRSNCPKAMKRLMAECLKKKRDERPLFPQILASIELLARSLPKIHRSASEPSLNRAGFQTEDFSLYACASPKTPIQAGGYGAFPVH
- method: B-Raf V600E kinase activity biochemical assay (AlphaScreen, biotin-MEK1 phosphorylation)
- reported conditions: ratio of IC50 B-Raf V600E / c-Raf-1
This listing pairs compounds with measured Biochemical activity ratio V600E/C.

Look over these answered cases.
[
  {
    "compound": "CN(C)c1ncnc2[nH]cc(C(=O)c3c(F)ccc(NS(=O)(=O)c4ccc(C(F)(F)F)cc4)c3F)c12 [P-1049]",
    "target entity": "B-Raf V600E (Homo sapiens (Human), UniProt P15056, V600E)",
    "Biochemical activity ratio V600E/C": ">10"
  },
  {
    "compound": "CCc1ccc(S(=O)(=O)Nc2ccc(F)c(C(=O)c3c[nH]c4ncnc(NC(C)C)c34)c2F)cc1 [P-1042]",
    "target entity": "B-Raf V600E (Homo sapiens (Human), UniProt P15056, V600E)",
    "Biochemical activity ratio V600E/C": ">10"
  },
  {
    "compound": "N#Cc1c(Cl)cnc2[nH]cc(C(=O)c3c(F)ccc(NS(=O)(=O)c4ccc(C(F)(F)F)cc4)c3F)c12 [P-2010]",
    "target entity": "B-Raf V600E (Homo sapiens (Human), UniProt P15056, V600E)",
    "Biochemical activity ratio V600E/C": ">10"
  },
  {
    "compound": "CCc1ccc(S(=O)(=O)Nc2ccc(F)c(C(=O)c3c[nH]c4ncnc(OC)c34)c2F)cc1 [P-1008]",
    "target entity": "B-Raf V600E (Homo sapiens (Human), UniProt P15056, V600E)",
    "Biochemical activity ratio V600E/C": "0.1-10"
  }
]

stdin: So what does the record say about Biochemical activity ratio V600E/C for O=C(c1c(F)ccc(NS(=O)(=O)c2ccccc2)c1F)c1c[nH]c2nccc(C(F)(F)F)c12 [P-2017] ?
stdout: >10

stdin: Can you check CCCS(=O)(=O)Nc1ccc(F)c(C(=O)c2c[nH]c3nccc(NC4CCCC4)c23)c1F [P-2012] next?
stdout: 0.1-10

stdin: Also check CCc1ccc(S(=O)(=O)Nc2ccc(F)c(C(=O)c3c[nH]c4ncnc(C)c34)c2F)cc1 [P-1019]
stdout: 0.1-10

stdin: Entry to check: O=C(c1c(F)ccc(NS(=O)(=O)c2ccc(C(F)(F)F)cc2)c1F)c1c[nH]c2ncnc(NC3CC3)c12 [P-1011]
stdout: >10

stdin: And the next one, CCCc1ccc(S(=O)(=O)Nc2ccc(F)c(C(=O)c3c[nH]c4ncnc(NC(C)C)c34)c2F)cc1 [P-1055] ?
stdout: >10

---

Measured Biochemical activity ratio B/V600E, listed per entry for reference.
- Test system: B-Raf
- method: B-Raf kinase activity biochemical assay (AlphaScreen, biotin-MEK1 phosphorylation)
- reported conditions: ratio of IC50 B-Raf / B-Raf V600E

In the examples that follow, each entry is paired with its recorded Biochemical activity ratio B/V600E.
[
  {
    "input smiles": "CCCS(=O)(=O)Nc1ccc(F)c(C(=O)c2c[nH]c3ncnc(OCC)c23)c1F",
    "measured result": "0.1-10"
  },
  {
    "input smiles": "CN(C)CCNc1ncnc2[nH]cc(C(=O)c3c(F)ccc(NS(=O)(=O)c4ccc(C(F)(F)F)cc4)c3F)c12",
    "measured result": "0.1-10"
  },
  {
    "input smiles": "CCCc1ccc(S(=O)(=O)Nc2ccc(F)c(C(=O)c3c[nH]c4ncnc(NC5CCOCC5)c34)c2F)cc1",
    "measured result": "0.1-10"
  }
]

stdin: Fill in the blank: the reported Biochemical activity ratio B/V600E of O=C(c1c(F)ccc(NS(=O)(=O)c2ccc(C(F)(F)F)cc2)c1F)c1c[nH]c2nccc(NC3CCOCC3)c12 is ____.
stdout: 0.1-10

---

- target entity: B-Raf (Homo sapiens (Human))
- Sequence (P15056 whole entry): as the sequence (P15056 whole entry V600E) above, with E600V counted along it
- method: B-Raf kinase activity biochemical assay (AlphaScreen, biotin-MEK1 phosphorylation)
- reported conditions: B-Raf
// reported IC50 for each item listed

[
  {
    "molecule": "CC(C)Nc1ncnc2[nH]cc(C(=O)c3c(F)ccc(NS(=O)(=O)c4ccc(C(F)(F)F)cc4)c3F)c12 [P-1039]",
    "target entity": "B-Raf (Homo sapiens (Human))",
    "measured result": "< 0.1 µM"
  },
  {
    "molecule": "O=C(c1c(F)ccc(NS(=O)(=O)c2ccc(C(F)(F)F)cc2)c1F)c1c[nH]c2ncnc(N3CCOCC3)c12 [P-1017]",
    "target entity": "B-Raf (Homo sapiens (Human))",
    "measured result": "> 0.1 µM"
  },
  {
    "molecule": "CN(C)CCNc1ncnc2[nH]cc(C(=O)c3c(F)ccc(NS(=O)(=O)c4ccc(C(F)(F)F)cc4)c3F)c12 [P-1059]",
    "target entity": "B-Raf (Homo sapiens (Human))",
    "measured result": "> 0.1 µM"
  },
  {
    "molecule": "CCCc1ccc(S(=O)(=O)Nc2ccc(F)c(C(=O)c3c[nH]c4ncnc(NC5CCOCC5)c34)c2F)cc1 [P-1046]",
    "target entity": "B-Raf (Homo sapiens (Human))",
    "measured result": "< 0.1 µM"
  },
  {
    "molecule": "CCCS(=O)(=O)Nc1ccc(F)c(C(=O)c2c[nH]c3ncc(Cl)c(C#N)c23)c1F [P-2007]",
    "target entity": "B-Raf (Homo sapiens (Human))",
    "measured result": "< 0.1 µM"
  }
]

stdin: Return reported IC50; argument: Cc1ncnc2[nH]cc(C(=O)c3c(F)ccc(NS(=O)(=O)c4ccc(C(C)C)cc4)c3F)c12 [P-1009]
stdout: > 0.1 µM

stdin: Another molecule to look at: CC(C)Cc1ncnc2[nH]cc(C(=O)c3c(F)ccc(NS(=O)(=O)c4ccc(C(F)(F)F)cc4)c3F)c12 [P-1015]
stdout: > 0.1 µM

stdin: Now give it for CCc1ccc(S(=O)(=O)Nc2ccc(F)c(C(=O)c3c[nH]c4ncnc(NC(C)C)c34)c2F)cc1 [P-1042] too.
stdout: < 0.1 µM

stdin: Continue with O=C(c1c(F)ccc(NS(=O)(=O)c2ccc(C(F)(F)F)cc2)c1F)c1c[nH]c2ncnc(NC3CCCC3)c12 [P-1035]
stdout: < 0.1 µM

stdin: // repeat for Cc1ncnc2[nH]cc(C(=O)c3c(F)ccc(NS(=O)(=O)c4ccc(C(F)(F)F)cc4)c3F)c12 [P-1001] and report
stdout: < 0.1 µM

stdin: Thanks! And CC(C)c1ncnc2[nH]cc(C(=O)c3c(F)ccc(NS(=O)(=O)c4ccc(C(F)(F)F)cc4)c3F)c12 [P-1029] ?
stdout: < 0.1 µM

stdin: // next record N#Cc1ncnc2[nH]cc(C(=O)c3c(F)ccc(NS(=O)(=O)c4ccc(C(F)(F)F)cc4)c3F)c12 [P-1023]
stdout: > 0.1 µM

stdin: Queued: COc1ncnc2[nH]cc(C(=O)c3c(F)ccc(NS(=O)(=O)c4ccc(C(C)C)cc4)c3F)c12 [P-1010]
stdout: > 0.1 µM

stdin: Another molecule to check: Cc1c(Cl)cnc2[nH]cc(C(=O)c3c(F)ccc(NS(=O)(=O)c4ccc(C(F)(F)F)cc4)c3F)c12 [P-2011]
stdout: < 0.1 µM

stdin: Next: CCCc1ccc(S(=O)(=O)Nc2ccc(F)c(C(=O)c3c[nH]c4ncnc(O)c34)c2F)cc1 [P-1030]
stdout: > 0.1 µM

---

- target entity: CYP3A4(BFC) (Homo sapiens (Human))
- Sequence (P08684 whole entry): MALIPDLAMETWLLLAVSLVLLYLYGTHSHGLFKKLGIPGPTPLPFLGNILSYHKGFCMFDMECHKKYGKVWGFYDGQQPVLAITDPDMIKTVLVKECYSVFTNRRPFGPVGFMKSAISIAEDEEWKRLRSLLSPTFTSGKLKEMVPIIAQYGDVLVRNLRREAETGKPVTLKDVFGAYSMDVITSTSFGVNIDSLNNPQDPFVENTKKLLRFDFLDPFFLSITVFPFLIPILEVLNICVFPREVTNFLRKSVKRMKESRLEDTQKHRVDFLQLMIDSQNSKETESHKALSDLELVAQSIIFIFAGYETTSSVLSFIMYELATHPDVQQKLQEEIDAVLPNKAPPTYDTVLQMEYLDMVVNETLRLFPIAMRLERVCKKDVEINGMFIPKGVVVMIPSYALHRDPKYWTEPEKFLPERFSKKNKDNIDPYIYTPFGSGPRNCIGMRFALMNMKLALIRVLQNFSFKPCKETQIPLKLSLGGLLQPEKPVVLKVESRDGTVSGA
- method: CYP enzyme inhibition, fluorescent substrate BFC
pIC50: −log10 of the molar value.
pIC50 overview

The cases that follow already have their pIC50 on record.
[
  {
    "input smiles": "CCCc1ccc(S(=O)(=O)Nc2ccc(F)c(C(=O)c3c[nH]c4ncnc(OCC)c34)c2F)cc1",
    "pIC50": "5.00 to 5.30"
  },
  {
    "input smiles": "CCCc1ccc(S(=O)(=O)Nc2ccc(F)c(C(=O)c3c[nH]c4ncnc(NC5CC5)c34)c2F)cc1",
    "pIC50": "5.00 to 5.30"
  },
  {
    "input smiles": "Cc1cc(C)cc(S(=O)(=O)Nc2ccc(F)c(C(=O)c3c[nH]c4ncnc(NC(C)C)c34)c2F)c1",
    "pIC50": "5.00 to 5.30"
  }
]

stdin: Item under review: CCCS(=O)(=O)Nc1ccc(F)c(C(=O)c2c[nH]c3ncc(C#N)c(Cl)c23)c1F . Reported pIC50?
stdout: < 5.00

stdin: Next compound up: CCCS(=O)(=O)Nc1ccc(F)c(C(=O)c2c[nH]c3ncc(C#N)c(OC)c23)c1F
stdout: < 5.00

stdin: And then COc1ncnc2[nH]cc(C(=O)c3c(F)ccc(NS(=O)(=O)c4cc(C)cc(C)c4)c3F)c12 , what is it?
stdout: 5.00 to 5.30

stdin: Try this compound next: CCCS(=O)(=O)Nc1ccc(F)c(C(=O)c2c[nH]c3ncc(Cl)c(C#N)c23)c1F
stdout: < 5.00

stdin: Next: O=C(c1c(F)ccc(NS(=O)(=O)c2ccc(C(F)(F)F)cc2)c1F)c1c[nH]c2ncnc(NCC3CC3)c12
stdout: 5.00 to 5.30

stdin: O=C(c1c(F)ccc(NS(=O)(=O)c2ccc(C(F)(F)F)cc2)c1F)c1c[nH]c2ncnc(NC3CCCC3)c12 ?
stdout: 5.00 to 5.30

stdin: How about CCCS(=O)(=O)Nc1ccc(F)c(C(=O)c2c[nH]c3ncc(OC)c(Cl)c23)c1F ?
stdout: 5.00 to 5.30

stdin: Record: CCCS(=O)(=O)Nc1ccc(F)c(C(=O)c2c[nH]c3ncc(C)c(Cl)c23)c1F
stdout: < 5.00

stdin: Queued: CCCS(=O)(=O)Nc1ccc(F)c(C(=O)c2c[nH]c3ncc(Cl)c(OC)c23)c1F
stdout: 5.00 to 5.30

Ref: patent US9617267B2
